Target: hGLP-1R (Homo sapiens, UniProt P43220)
Sequence (P43220 24-463): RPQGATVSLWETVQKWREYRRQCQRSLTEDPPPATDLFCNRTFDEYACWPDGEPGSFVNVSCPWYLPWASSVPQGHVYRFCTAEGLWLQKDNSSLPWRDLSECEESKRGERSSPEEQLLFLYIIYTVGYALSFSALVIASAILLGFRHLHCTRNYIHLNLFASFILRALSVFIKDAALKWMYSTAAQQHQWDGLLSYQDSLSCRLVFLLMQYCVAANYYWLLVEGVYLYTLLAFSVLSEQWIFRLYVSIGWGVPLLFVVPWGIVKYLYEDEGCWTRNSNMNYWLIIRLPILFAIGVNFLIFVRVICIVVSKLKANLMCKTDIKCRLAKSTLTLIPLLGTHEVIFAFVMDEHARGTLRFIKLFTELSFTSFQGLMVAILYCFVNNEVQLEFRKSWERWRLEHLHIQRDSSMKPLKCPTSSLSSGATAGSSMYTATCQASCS
Test: cell-based or functional assay
quantity: Relative cAMP EC50 (nM)

binder="YXQGTFTSDFSXXLDKKAQXAFIEYLLEAGHSSGAPPPSGE (Aib, Orn, αMeL, D-Ala; lysine acylated C18 diacid; amide; synthetic construct; SITE 2: note = 2-Aminoisobutyric Acid; SITE 12: note = L-ornithine; SITE 13: note = alpha-methyl-leucine; SITE 17: note = Lysine is chemically modified through conjugation of the epsilon-amino group of the Lysine side chain with (2-[2-(2-Amino-ethoxy)-ethoxy]-acetyl)-(gamma-Glu)) [Example 207]" measurementunit=nM resultvalue=4.36
binder="YXQGTFTSDXXQXLDXKAQXQFIEXLIEXGPSSGEPPPSGGGE (non-natural residues; Lys acylated with γGlu-C18 diacid; C-terminal amide; synthetic construct; SITE 2: note = 2-Aminoisobutyric Acid; SITE 10: note = 3-(4-Pyridyl)-L-alanine; SITE 11: note = alpha-methyl-L-serine; SITE 13: note = alpha-methyl-leucine; SITE 16: note = L-ornithine; SITE 17: note = Lysine is chemically modified through conjugation of the epsilon-amino group) [Example 1184]" measurementunit=nM resultvalue=1.18
binder="YXQGTFTSDXSRXLDKKAQXAFIEYLIEXSPSSGAPPPSGS (synthetic construct; SITE 2: note = 2-Aminoisobutyric Acid; SITE 10: note = 3-(4-Pyridyl)-L-alanine; SITE 13: note = alpha-methyl-leucine; SITE 17: note = Lysine is chemically modified through conjugation of the epsilon-amino group of the Lysine side chain with (2-[2-(2-Amino-ethoxy)-ethoxy]-acetyl)) [Example 807]" measurementunit=nM resultvalue=1.72
binder="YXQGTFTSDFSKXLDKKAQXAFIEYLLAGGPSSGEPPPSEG (Aib, αMeL, acylated Lys, C-terminal amide; synthetic construct; SITE 2: note = 2-Aminoisobutyric Acid; SITE 13: note = alpha-methyl-leucine; SITE 17: note = Lysine is chemically modified through conjugation of the epsilon-amino group of the Lysine side chain with (2-[2-(2-Amino-ethoxy)-ethoxy]-acetyl)2-(gamma-Glu)-CO-(CH2 )16-CO2H; SITE 20:) [Example 25]" measurementunit=nM resultvalue=3.34
binder="YXQGTFTSDFSXXLDKKAQXAFIEYLLEAGPSSGAPPPSGX (non-natural residues, acylated Lys, C-terminal amide; synthetic construct; SITE 2: note = 2-Aminoisobutyric Acid; SITE 12: note = L-ornithine; SITE 13: note = alpha-methyl-leucine; SITE 17: note = Lysine is chemically modified through conjugation of the epsilon-amino group of the Lysine side chain with (2-[2-(2-Amino-ethoxy)-ethoxy]-acetyl)-(gamma-Glu)) [Example 211]" measurementunit=nM resultvalue=1.23
binder="YXQGTXTSDXSIXLDKKAQXAFIEYLEEGGPSSGEPPPSGEGE (non-natural residues; lipidated Lys; C-terminal amide; synthetic construct; SITE 2: note = 2-Aminoisobutyric Acid; SITE 6: note = alpha-methyl-2-fluoro-L-phenylalanine; SITE 10: note = 3-(4-Pyridyl)-L-alanine; SITE 13: note = alpha-methyl-leucine; SITE 17: note = Lysine is chemically modified through conjugation of the epsilon-amino group of the Lysine) [Example 625]" measurementunit=nM resultvalue=1.16
